The measurements presented in this section are drawn from ChEMBL document CHEMBL5058577.

test system: U2OS; assay: Multiplex assay against U2OS; type: toxicity, cell-based; settings: human, 12 h, 1 µM, compound concentration 1 uM, replicate 1
Non-standard residues stand in square brackets, D forms with d. Residues, ends and D or L forms follow the SMILES beside them.
The following compounds are shown together with reported Population Healthy Nuclei (%) values.

{"compound": "CCCCC[C@H](O)/C=C/[C@H]1[C@H](O)CC(=O)[C@@H]1CCCCCCC(=O)O", "Population Healthy Nuclei (%)": 62}
{"compound": "Cc1cc(=O)n(C)c2cc(N3C(=O)CC[C@H](NS(=O)(=O)CC(C)C)[C@H]3c3ccc(Cl)cc3)ccc12", "Population Healthy Nuclei (%)": 66}
{"compound": "CSc1nc(NC2CCCC2)c([N+](=O)[O-])c(NC2CCCC2)n1", "Population Healthy Nuclei (%)": 66}
{"compound": "CC(C)C[C@@H]1NC(=O)[C@@H](C(C)C)NC(=O)[C@@H]2CCCN2C(=O)[C@@H](CC(=O)O)NC(=O)[C@@H](Cc2c[nH]c3ccccc23)NC1=O [BQ-123] (cyclo(L[dW][dD]P[dV]))", "Population Healthy Nuclei (%)": 69}
{"compound": "Cc1sc2c(c1C)C(c1ccc(Cl)cc1)=N[C@H](CC(=O)OC(C)(C)C)c1nnc(C)n1-2", "Population Healthy Nuclei (%)": 63}
{"compound": "CN1C[C@H](C(=O)N[C@]2(C)O[C@@]3(O)[C@@H]4CCCN4C(=O)[C@H](Cc4ccccc4)N3C2=O)C[C@@H]2c3cccc4[nH]cc(c34)C[C@H]21.CS(=O)(=O)O [DIHYDROERGOTAMINE MESYLATE]", "Population Healthy Nuclei (%)": 65}
{"compound": "COc1ccc2[nH]c(I)c(CCNC(C)=O)c2c1", "Population Healthy Nuclei (%)": 74}
